Overview of reported pIC50 across a group of compounds:
# System: Human primary T cells
# Experiment description: IL-2 ELISA, Human Primary T Cell, Anti-CD3+CD28+ (Example 3)
# Type: cell-based
# Stated conditions: Homo sapiens, T-cell, 24 h, anti-CD3+CD28 stimulation
# pIC50 = -log10(concentration in molar units)

Compound	pIC50
CN1C(=O)CCc2cc(Nc3ncc(F)c(NC4CC(C)(C)N(C)C(C)(C)C4)n3)ccc21 [II-4]	5.76
CN1C(C)(C)CC(Nc2nc(Nc3cccc(S(N)(=O)=O)c3)ncc2F)CC1(C)C [Compound I-10]	5.73

Query :: What value of pIC50 has been reported for the following compound? CCN1C(=O)C(F)(F)Oc2cc(Nc3ncc(C#N)c(NC4CC(C)(C)N(C)C(C)(C)C4)n3)cnc21 [II-65]
Result :: 6.59

Query :: Do the same for CN1C(C)(C)CC(Nc2nc(Nc3cc4c(cc3F)OC(F)(F)O4)ncc2F)CC1(C)C [II-176] please
Result :: 5.67

Query :: Next entry: CN1C(C)(C)CC(Nc2nc(Nc3ccc(N4CCSCC4)c(C#N)c3)ncc2F)CC1(C)C [Compound I-199]
Result :: 6.87

Query :: Query CC1(C)CC(Nc2nc(Nc3ccc4c(c3)OC3(CCCCC3)O4)ncc2F)CC(C)(C)N1 [II-121] next
Result :: 5.74

Query :: Another: CN1C(C)(C)CC(Nc2nc(Nc3ccc(N4CCN(S(C)(=O)=O)CC4)c(C#N)c3)ncc2F)CC1(C)C [Compound I-164]
Result :: 6.65

Query :: Same lookup for COc1ccc(Nc2ncc(C#N)c(NC3CC(C)(C)N(C)C(C)(C)C3)n2)cc1-n1c(C)ccc1C [Compound I-376] , please.
Result :: 6.59

Query :: Now consider Cc1ccc2cc(Nc3ncc(F)c(NC4CC(C)(C)N(C)C(C)(C)C4)n3)ccc2n1 [II-7] .
Result :: 6.32

Query :: # iterate: Cc1ccc(Nc2ncc(F)c(NC3CC(C)(C)N(C)C(C)(C)C3)n2)cc1-c1ccncc1 [Compound I-187]
Result :: 6.52

Query :: How about this compound: COc1cc(Nc2ncc(F)c(NC3CC(C)(C)N(C)C(C)(C)C3)n2)cc(OC)c1 [Compound I-129]
Result :: 6.67

Query :: And then CN1C(C)(C)CC(Nc2nc(Nc3ccc4c(c3)OC(F)(F)O4)ncc2F)CC1(C)C [II-37] , what is it?
Result :: 5.86

Query :: And for CN1C(C)(C)CC(Nc2nc(Nc3ccc4c(c3)OCCO4)ncc2Br)CC1(C)C [II-127] ?
Result :: 6.35

Query :: Next record, please: COc1ccc(Nc2ncc(F)c(NC3CC(C)(C)N(CCC(=O)O)C(C)(C)C3)n2)cc1Cl [Compound I-303]
Result :: 4.75

Query :: Entry to check: CN1C(C)(C)CC(Nc2nc(Nc3cc4c(cc3F)OC(F)(F)C(F)(F)O4)ncc2F)CC1(C)C [II-123]
Result :: 6.06

Query :: # repeat for CC1(C)CC(Nc2nc(Nc3ccc4c(c3)OC3(CCCC3)O4)ncc2F)CC(C)(C)N1 [II-120]
Result :: 5.87
